assay: folding enthalpy; higher = less favourable; fluorescence melt of hairpins on a sequencing array, two-state fit; settings: sodium 0.088 M
sequences and their reported folding enthalpy
MEASUREMENT_NAME: folding enthalpy (kcal/mol)

{"SEQUENCE_DATA": "GATTCAGGAAACTGAATC (((((((....)))))))", "MEASUREMENT_NAME": "folding enthalpy", "UNITS_TEXT": "kcal/mol", "QUANTITATIVE_READOUT": -36.9}
{"SEQUENCE_DATA": "GAGGCGGGAAACCGCTTC ((.((((....)))).))", "MEASUREMENT_NAME": "folding enthalpy", "UNITS_TEXT": "kcal/mol", "QUANTITATIVE_READOUT": -15.9}
{"SEQUENCE_DATA": "GGACTCGAAAGAGTTCC ((((((....))).)))", "MEASUREMENT_NAME": "folding enthalpy", "UNITS_TEXT": "kcal/mol", "QUANTITATIVE_READOUT": -21.2}
{"SEQUENCE_DATA": "GTCCGCGAAAGCGGTGAC ((((((....)))..)))", "MEASUREMENT_NAME": "folding enthalpy", "UNITS_TEXT": "kcal/mol", "QUANTITATIVE_READOUT": -8.67}
{"SEQUENCE_DATA": "GTCCAAGGAAACTTGGGC (.(((((....))))).)", "MEASUREMENT_NAME": "folding enthalpy", "UNITS_TEXT": "kcal/mol", "QUANTITATIVE_READOUT": -46.6}
{"SEQUENCE_DATA": "GCGCGGCGAAAGCGGGGC ((.(.((....)).).))", "MEASUREMENT_NAME": "folding enthalpy", "UNITS_TEXT": "kcal/mol", "QUANTITATIVE_READOUT": -27.7}
{"SEQUENCE_DATA": "GATCCTCGCAGGATC ((((((...))))))", "MEASUREMENT_NAME": "folding enthalpy", "UNITS_TEXT": "kcal/mol", "QUANTITATIVE_READOUT": -33.8}
{"SEQUENCE_DATA": "GCTCCTGGAAACGGGAGC (((((.(....).)))))", "MEASUREMENT_NAME": "folding enthalpy", "UNITS_TEXT": "kcal/mol", "QUANTITATIVE_READOUT": -41.1}
{"SEQUENCE_DATA": "GGGTCTGGAAACGGACCC (((((.(....).)))))", "MEASUREMENT_NAME": "folding enthalpy", "UNITS_TEXT": "kcal/mol", "QUANTITATIVE_READOUT": -51.6}
{"SEQUENCE_DATA": "GAACGAGGAAACCCGTTC (((((.(....).)))))", "MEASUREMENT_NAME": "folding enthalpy", "UNITS_TEXT": "kcal/mol", "QUANTITATIVE_READOUT": -33.5}
{"SEQUENCE_DATA": "GATCCCTGACGGGATC ((((((....))))))", "MEASUREMENT_NAME": "folding enthalpy", "UNITS_TEXT": "kcal/mol", "QUANTITATIVE_READOUT": -38.6}
{"SEQUENCE_DATA": "GTCATCCCGAAAGGGGAC (((..(((....))))))", "MEASUREMENT_NAME": "folding enthalpy", "UNITS_TEXT": "kcal/mol", "QUANTITATIVE_READOUT": -14.1}
{"SEQUENCE_DATA": "GCGTCTTAACGC ((((....))))", "MEASUREMENT_NAME": "folding enthalpy", "UNITS_TEXT": "kcal/mol", "QUANTITATIVE_READOUT": -26.4}
{"SEQUENCE_DATA": "GCGCGCGAAAGCGTTCGC ((((((....)))..)))", "MEASUREMENT_NAME": "folding enthalpy", "UNITS_TEXT": "kcal/mol", "QUANTITATIVE_READOUT": -14.6}
{"SEQUENCE_DATA": "GATCTGGATTCAGATC ((((((....))))))", "MEASUREMENT_NAME": "folding enthalpy", "UNITS_TEXT": "kcal/mol", "QUANTITATIVE_READOUT": -39.3}
{"SEQUENCE_DATA": "GGAACCGAAAGGTCGTCC ((((((....)))..)))", "MEASUREMENT_NAME": "folding enthalpy", "UNITS_TEXT": "kcal/mol", "QUANTITATIVE_READOUT": -10.8}
{"SEQUENCE_DATA": "GGGGTTGAAAAACCCC ((((((....))))))", "MEASUREMENT_NAME": "folding enthalpy", "UNITS_TEXT": "kcal/mol", "QUANTITATIVE_READOUT": -34.5}
{"SEQUENCE_DATA": "GATCATTATTATGATC ((((((....))))))", "MEASUREMENT_NAME": "folding enthalpy", "UNITS_TEXT": "kcal/mol", "QUANTITATIVE_READOUT": -32.2}
{"SEQUENCE_DATA": "GTTCTGGGAAACTAGAGC (.(((.(....).))).)", "MEASUREMENT_NAME": "folding enthalpy", "UNITS_TEXT": "kcal/mol", "QUANTITATIVE_READOUT": -8.92}
{"SEQUENCE_DATA": "GCTGTCGAAAGACAAGC ((((((....))).)))", "MEASUREMENT_NAME": "folding enthalpy", "UNITS_TEXT": "kcal/mol", "QUANTITATIVE_READOUT": -27.8}
{"SEQUENCE_DATA": "GATCTCGCAGGAGATC ((((((....))))))", "MEASUREMENT_NAME": "folding enthalpy", "UNITS_TEXT": "kcal/mol", "QUANTITATIVE_READOUT": -50.6}
{"SEQUENCE_DATA": "GAGTATGGAAACGTACTC (((((.(....).)))))", "MEASUREMENT_NAME": "folding enthalpy", "UNITS_TEXT": "kcal/mol", "QUANTITATIVE_READOUT": -33.1}
{"SEQUENCE_DATA": "GATCCCGGATGGGATC ((((((....))))))", "MEASUREMENT_NAME": "folding enthalpy", "UNITS_TEXT": "kcal/mol", "QUANTITATIVE_READOUT": -28}
{"SEQUENCE_DATA": "GTATGCGAAAGCATTAC ((((((....))).)))", "MEASUREMENT_NAME": "folding enthalpy", "UNITS_TEXT": "kcal/mol", "QUANTITATIVE_READOUT": -13.8}
{"SEQUENCE_DATA": "GTCATCCGAAAGGAGAC (((.(((....))))))", "MEASUREMENT_NAME": "folding enthalpy", "UNITS_TEXT": "kcal/mol", "QUANTITATIVE_READOUT": -20.1}
